method_summary: growth suppression of beta-catenin knockout HCT116, pilot screen, human colon tumor cells (AID 823);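 also: 0% = wells killed by 20 µM Hyamine and 100% = untreated DMSO cell wells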
setup_conditions: CellTiter-Glo, 60 h, at 10 µM, stronger effect = lower value
Records with an inconclusive call do not appear.
Overview of recorded viability for various compounds

compound | viability / %
COc1cccc(-n2nnc3c(=O)n(C/C=C/c4ccccc4)cnc32)c1 | 92.3
CCCC(=O)c1ccc(N2CCOCC2)c(F)c1 | 98.7
CN(C)CCNC(=O)c1ccc2c(c1)N(Cc1ccc(F)cc1)CCS2 | 47.8
CC(CCc1ccccc1)NC(=O)C1CCN(C(=O)c2sccc2-n2cccc2)CC1 (centres undefined) | 93.8
O=C(CN1C(=O)c2ccccc2C1=O)Nc1cccc2cccnc12 | 104
CCCCCn1c(CNC(=O)CCC)nc2ccccc21 | 101
Cc1ccc(-n2c(=O)[nH]cc(C(=O)Nc3ccc4c(c3)OCO4)c2=O)cc1C | 107
CC12C(=O)N(c3cccc4cccnc34)C(=O)C1C1C=CC2C1 (centres undefined) | 103
CC1=C(C#N)C2C(/C1=N/O)C2(C)C (centres undefined) | 95
Cc1c(C(=O)NCc2cccnc2)oc2ccccc12 | 99.2
N#Cc1c(NC(=O)c2cc(C3CC3)on2)sc2c1CCC2 | 38.9
COCCCNC(=O)CN1C(=O)CSc2ncccc21 | 105
COc1ccc(NC(=O)[C@H](CCS(C)(=O)=O)N2Cc3ccccc3C2=O)c(OC)c1 | 104
c1nc(N2CCNCC2)c2sc3nc(N4CCOCC4)c4c(c3c2n1)CCC4 | 2.54
Cn1cnnc1SCC(=O)c1ccc2c(c1)CCCC2 | 105
Cc1nn(C)c(C)c1S(=O)(=O)N(CC(=O)Nc1ccc2c(c1)OCO2)c1ccc(C(C)C)cc1 | 102
CC(=O)N1CC2(C)CN(C(C)=O)CC(C)(C1)C2=O | 101
CCN(CCCNC(=O)Cn1ncc2c(=O)oc3ccccc3c21)c1cccc(C)c1 | 89.9
Cn1cc(SCC(=O)NCc2ccc3c(c2)OCO3)c2ccccc21 | 98.3
Fc1ccccc1COc1cccc(/C=N/n2cnnc2)c1 | 96.2
COc1ccccc1CNc1ncnc2c1cnn2-c1ccccc1 | 74.2
CN(C)S(=O)(=O)c1ccc2c(c1)c(=O)c(C(=O)N1CCN(c3ccccn3)CC1)cn2C | 97.9
COc1ccc(OCCSc2nnc(-c3ccccc3)n2N)cc1 | 89.8
COc1cc(S(=O)(=O)NCc2ccc3c(c2)OCO3)ccc1Cl | 97.3
